meta.source: ChEMBL document CHEMBL1136977

target: Carbonic anhydrase 15 (Mus musculus) (UniProt Q99N23); assay: Activation of membrane associated mouse recombinant carbonic anhydrase 15 isoform by stopped-flow CO2 hydrase method
Sequence (Q99N23 whole entry, canonical isoform): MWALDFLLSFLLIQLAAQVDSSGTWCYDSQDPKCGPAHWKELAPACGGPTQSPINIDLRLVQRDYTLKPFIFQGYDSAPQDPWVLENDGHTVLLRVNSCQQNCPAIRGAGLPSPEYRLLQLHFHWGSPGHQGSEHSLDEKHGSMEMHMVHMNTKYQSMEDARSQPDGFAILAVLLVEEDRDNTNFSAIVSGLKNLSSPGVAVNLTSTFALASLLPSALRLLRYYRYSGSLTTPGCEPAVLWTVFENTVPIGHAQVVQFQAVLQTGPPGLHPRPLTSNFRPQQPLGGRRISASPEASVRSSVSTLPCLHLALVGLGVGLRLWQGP
Assign Met to entries whose KA meets or exceeds 10 µM; assign Not met to the rest.

Observe how each entry below is paired with its result.
NCCc1ccccn1: Met
N[C@H](Cc1c[nH]cn1)C(=O)O: Met
NCCc1c[nH]cn1: Met

Enquiry: Check the entry `N[C@H](Cc1ccc(O)c(O)c1)C(=O)O` : does KA equal or exceed 10 µM?
Return: Not met

Enquiry: Repeat with `NCCc1ccc(O)c(O)c1`
Return: Not met

Enquiry: Moving on to `NCCN1CCNCC1`
Return: Met

Enquiry: Again, but for `N[C@@H](Cc1ccc(O)c(O)c1)C(=O)O`
Return: Not met

Enquiry: Now consider `CNC[C@@H](O)c1ccc(O)c(O)c1` .
Return: Not met

Enquiry: Cool, now `NCCN1CCOCC1`
Return: Not met

Enquiry: Again, but for `N[C@@H](Cc1c[nH]c2ccccc12)C(=O)O`
Return: Met

Enquiry: Entry `N[C@@H](Cc1c[nH]cn1)C(=O)O` please
Return: Met

Enquiry: Follow-up entry: `NCCc1c[nH]c2ccc(O)cc12`
Return: Not met

Enquiry: And for `Nc1ccc(C[C@H](N)C(=O)O)cc1` ?
Return: Met

----------
target: Carbonic anhydrase 4 (Homo sapiens); test: Activation of human recombinant carbonic anhydrase 4 lacking 20 amino terminal residues by stopped-flow CO2 hydrase method
Field: KA. Provide a value for each of the compounds that follow.
Answers are plain numbers, in µM.

The following compounds have reported results that may help.
N[C@H](Cc1ccc(O)c(O)c1)C(=O)O: 34.7
NCCc1c[nH]c2ccc(O)cc12: 3.14
CNC[C@@H](O)c1ccc(O)c(O)c1: 45
NCc1ccccn1: 5.19
N[C@@H](Cc1ccc(O)cc1)C(=O)O: 25.1

Give KA for each listed item.
1. N[C@H](Cc1c[nH]c2ccccc12)C(=O)O
2. NCCc1ccccn1
3. N[C@@H](Cc1ccc(O)c(O)c1)C(=O)O
4. N[C@H](Cc1c[nH]cn1)C(=O)O

Return:
1: 39.6; 2: 7.13; 3: 15.3; 4: 12.3

Hi, could you look up KA for each item in my list?
1. NCCc1ccc(O)c(O)c1
2. N[C@@H](Cc1c[nH]c2ccccc12)C(=O)O

Return:
1. 30.9
2. 37.1

----------
Task for the reader: assign each of the following molecules its reported KA.
biological target: Carbonic anhydrase 15 (Mus musculus) (UniProt Q99N23); experiment: Activation of membrane associated mouse recombinant carbonic anhydrase 15 isoform by stopped-flow CO2 hydrase method
Give bare numbers, in µM.

NCc1ccccn1: 11.6
N[C@H](Cc1c[nH]c2ccccc12)C(=O)O: 8.7

// below: KA requested for another molecule
Enquiry: Any idea what KA was measured for `N[C@@H](Cc1ccc(O)cc1)C(=O)O` ?
Return: 8.9

----------
molecular target: Carbonic anhydrase 4 (Homo sapiens) (UniProt P22748); experiment: Activation of human recombinant carbonic anhydrase 4 lacking 20 amino terminal residues by stopped-flow CO2 hydrase method
Sequence (P22748 whole entry): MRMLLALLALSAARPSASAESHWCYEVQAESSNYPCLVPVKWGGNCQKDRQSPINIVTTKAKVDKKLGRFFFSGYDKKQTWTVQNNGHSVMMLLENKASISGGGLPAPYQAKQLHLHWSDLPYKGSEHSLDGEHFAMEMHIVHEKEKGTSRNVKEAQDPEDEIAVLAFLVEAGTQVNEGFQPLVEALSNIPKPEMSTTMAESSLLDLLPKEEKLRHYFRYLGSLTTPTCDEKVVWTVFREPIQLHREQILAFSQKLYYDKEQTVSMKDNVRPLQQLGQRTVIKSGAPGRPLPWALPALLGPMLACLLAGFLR
I'd appreciate it if you could supply KA values for the items below.
Answers are plain numbers, in µM.

N[C@@H](Cc1c[nH]cn1)C(=O)O: 7.3
NCCc1c[nH]cn1: 25.3
NCCN1CCNCC1: 24.9
Nc1ccc(C[C@H](N)C(=O)O)cc1: 0.079

Query compound follows.
Enquiry: Which value of KA has been reported for `NCCN1CCOCC1` in the records?
Return: 1.3
